# TEST_PROTOCOL: Half life in mouse at 10 mg/kg, po
# Assay type: ADME, organism-based
# Set-up: dose 10 mg/kg, route oral
# SETUP_CONDITIONS: in vivo
ENDPOINT_NAME: half-life

Illustrative cases are given below, each with its answer.
{"columns": ["TEST_SMILES", "half-life"],
 "data": [
  ["Nc1nc(=O)n([C@H]2CC[C@H](NS(=O)(=O)c3cccc(-c4ccc(Cl)cc4)c3)C2)cc1F", "2.1 h"],
  ["COc1ccc(-c2cccc(C(=O)N[C@H]3CC[C@H](n4cc(F)c(N)nc4=O)C3)c2)cc1", "1.6 h"],
  ["Nc1nc(=O)n([C@H]2CC[C@H](NC(=O)c3cc(-c4cc5ccccc5s4)ccn3)C2)cc1F", "1.5 h"],
  ["Cc1cc(Cl)ccc1-c1cccc(C(=O)N[C@H]2CC[C@H](n3cc(F)c(N)nc3=O)C2)c1", "1.3 h"],
  ["Cc1cc(Cl)ccc1-c1cccc(S(=O)(=O)N[C@H]2CC[C@H](n3cc(F)c(N)nc3=O)C2)c1", "1.6 h"],
  ["COc1ccc(-c2cccc(S(=O)(=O)N[C@H]3CC[C@H](n4cc(F)c(N)nc4=O)C3)c2)cc1", "1.2 h"]
]}

Specify measured half-life for Nc1nc(=O)n([C@H]2CC[C@H](NC(=O)c3cccc(-c4ccc(Cl)cc4)c3)C2)cc1F .
0.8 h
